- Tested on: transplanted tumor of human glioblastoma cell A172
- statedConditions: A172 nude mice; 50 mg/kg; d1
readoutLabel: Tumor Volume (mm3) (d 1)
Give bare numbers, in mm3.

Below: 3 compounds and their reported Tumor Volume (mm3) (d 1).
compound | systemTested | displayUnit | Tumor Volume (mm3) (d 1)
CO[C@@H]1[C@@H](O[C@@H]2O[C@H](C)[C@@H](O[C@H]3C[C@@](C)(O)[C@@H](OC(=O)CC(C)C)[C@H](C)O3)[C@H](N(C)C)[C@H]2O)[C@@H](CC=O)C[C@@H](C)[C@@H](O[C@H]2CC[C@H](N(C)C)[C@@H](C)O2)/C=C/C=C/C[C@@H](C)OC(=O)C[C@H]1O | transplanted tumor of human glioblastoma cell A172 | mm3 | 122.38
Cn1nnc2c(C(N)=O)ncn2c1=O [temozolomide, reference compound] | transplanted tumor of human glioblastoma cell A172 | mm3 | 116.6
COC1C(OC(C)=O)CC(=O)OC(C)CC=CC=CC(OC2CCC(N(C)C)C(C)O2)C(C)CC(CC=O)C1OC1OC(C)C(OC2CC(C)(O)C(OC(=O)CC(C)C)C(C)O2)C(N(C)C)C1O (stereo not shown) | transplanted tumor of human glioblastoma cell A172 | mm3 | 120.28

Req: Which Tumor Volume (mm3) (d 1) is listed for `CCC(=O)O[C@@H]1CC(=O)O[C@H](C)C/C=C/C=C/[C@H](O[C@H]2CC[C@H](N(C)C)[C@@H](C)O2)[C@H](C)C[C@H](CC=O)[C@H](O[C@@H]2O[C@H](C)[C@@H](O[C@H]3C[C@@](C)(O)[C@@H](OC(=O)CC(C)C)[C@H](C)O3)[C@H](N(C)C)[C@H]2O)[C@H]1OC` ?
Resp: 118.44

###

- testName: Thymus index and spleen index of H22 liver cancer tumor-bearing mice
- statedConditions: dose 26 mg/kg
Exercise: for every item that follows, state its recorded Thymus Index (%).
Give bare numbers, in %.

Consider the following illustrative entries.
molecule | Thymus Index (%)
CCC(=O)O[C@@H]1CC(=O)O[C@H](C)C/C=C/C=C/[C@H](O[C@H]2CC[C@H](N(C)C)[C@@H](C)O2)[C@H](C)C[C@H](CC=O)[C@H](O[C@@H]2O[C@H](C)[C@@H](O[C@H]3C[C@@](C)(O)[C@@H](OC(=O)CC(C)C)[C@H](C)O3)[C@H](N(C)C)[C@H]2O)[C@H]1OC [Isovaleryl spiramycin III, isovaleryl spiramycin III] | 0.15
O=P1(N(CCCl)CCCl)NCCCO1 (stereo not shown) [Cyclophosphamide, cyclophosphamide, reference compound] | 0.04
COC1C(OC(C)=O)CC(=O)OC(C)CC=CC=CC(OC2CCC(N(C)C)C(C)O2)C(C)CC(CC=O)C1OC1OC(C)C(OC2CC(C)(O)C(OC(=O)CC(C)C)C(C)O2)C(N(C)C)C1O (stereo not shown) [Isovaleryl spiramycin II, isovaleryl spiramycin II] | 0.16

Proceed to the following item.
Req: Requested field: Thymus Index (%). Item: CO[C@@H]1[C@@H](O[C@@H]2O[C@H](C)[C@@H](O[C@H]3C[C@@](C)(O)[C@@H](OC(=O)CC(C)C)[C@H](C)O3)[C@H](N(C)C)[C@H]2O)[C@@H](CC=O)C[C@@H](C)[C@@H](O[C@H]2CC[C@H](N(C)C)[C@@H](C)O2)/C=C/C=C/C[C@@H](C)OC(=O)C[C@H]1O [Isovaleryl spiramycin I, isovaleryl spiramycin I]
Resp: 0.14

###

- System: transplanted tumor of human glioblastoma cell A172
- statedConditions: mouse, in vivo, 50 mg/kg
Consider the following compounds; for each one, report its Body Weight (g) (d30).
One number for each entry, in g.

Here is how some compounds turned out for Body Weight (g) (d30).
compound | Body Weight (g) (d30)
CO[C@@H]1[C@@H](O[C@@H]2O[C@H](C)[C@@H](O[C@H]3C[C@@](C)(O)[C@@H](OC(=O)CC(C)C)[C@H](C)O3)[C@H](N(C)C)[C@H]2O)[C@@H](CC=O)C[C@@H](C)[C@@H](O[C@H]2CC[C@H](N(C)C)[C@@H](C)O2)/C=C/C=C/C[C@@H](C)OC(=O)C[C@H]1O | 20.88
Cn1nnc2c(C(N)=O)ncn2c1=O [temozolomide, reference compound] | 19.83
CCC(=O)O[C@@H]1CC(=O)O[C@H](C)C/C=C/C=C/[C@H](O[C@H]2CC[C@H](N(C)C)[C@@H](C)O2)[C@H](C)C[C@H](CC=O)[C@H](O[C@@H]2O[C@H](C)[C@@H](O[C@H]3C[C@@](C)(O)[C@@H](OC(=O)CC(C)C)[C@H](C)O3)[C@H](N(C)C)[C@H]2O)[C@H]1OC | 20.67

Now take the following compound into account.
Req: Given the compound COC1C(OC(C)=O)CC(=O)OC(C)CC=CC=CC(OC2CCC(N(C)C)C(C)O2)C(C)CC(CC=O)C1OC1OC(C)C(OC2CC(C)(O)C(OC(=O)CC(C)C)C(C)O2)C(N(C)C)C1O (stereo not shown) , what is its reported Body Weight (g) (d30)?
Resp: 20.97

###

Provide the reported Spleen Index (%) of each item.
- testName: Thymus index and spleen index of Lewis lung cancer tumor-bearing mice
- statedConditions: dose 26 mg/kg; n = 6
Answers are plain numbers, in %.

Worked cases, Spleen Index (%) given:
compound | displayUnit | Spleen Index (%)
CO[C@@H]1[C@@H](O[C@@H]2O[C@H](C)[C@@H](O[C@H]3C[C@@](C)(O)[C@@H](OC(=O)CC(C)C)[C@H](C)O3)[C@H](N(C)C)[C@H]2O)[C@@H](CC=O)C[C@@H](C)[C@@H](O[C@H]2CC[C@H](N(C)C)[C@@H](C)O2)/C=C/C=C/C[C@@H](C)OC(=O)C[C@H]1O | % | 0.62
CCC(=O)O[C@@H]1CC(=O)O[C@H](C)C/C=C/C=C/[C@H](O[C@H]2CC[C@H](N(C)C)[C@@H](C)O2)[C@H](C)C[C@H](CC=O)[C@H](O[C@@H]2O[C@H](C)[C@@H](O[C@H]3C[C@@](C)(O)[C@@H](OC(=O)CC(C)C)[C@H](C)O3)[C@H](N(C)C)[C@H]2O)[C@H]1OC | % | 0.68
COC1C(OC(C)=O)CC(=O)OC(C)CC=CC=CC(OC2CCC(N(C)C)C(C)O2)C(C)CC(CC=O)C1OC1OC(C)C(OC2CC(C)(O)C(OC(=O)CC(C)C)C(C)O2)C(N(C)C)C1O (stereo not shown) | % | 0.68

Kindly review the next compound as well.
Req: Request the reported Spleen Index (%) associated with O=P1(N(CCCl)CCCl)NCCCO1 (stereo not shown) [Cyclophosphamide, cyclophosphamide, reference compound]
Resp: 0.48

###

- testName: Spleen index of A549 lung cancer tumor-bearing mice
- statedConditions: dose 26 mg/kg; n = 6
readoutLabel: Spleen Index (%)
Answers are plain numbers, in %.

compound | Spleen Index (%)
CO[C@@H]1[C@@H](O[C@@H]2O[C@H](C)[C@@H](O[C@H]3C[C@@](C)(O)[C@@H](OC(=O)CC(C)C)[C@H](C)O3)[C@H](N(C)C)[C@H]2O)[C@@H](CC=O)C[C@@H](C)[C@@H](O[C@H]2CC[C@H](N(C)C)[C@@H](C)O2)/C=C/C=C/C[C@@H](C)OC(=O)C[C@H]1O | 0.38

Please state, for each entry, its recorded Spleen Index (%).
1. COC1C(OC(C)=O)CC(=O)OC(C)CC=CC=CC(OC2CCC(N(C)C)C(C)O2)C(C)CC(CC=O)C1OC1OC(C)C(OC2CC(C)(O)C(OC(=O)CC(C)C)C(C)O2)C(N(C)C)C1O (stereo not shown)
2. CCC(=O)O[C@@H]1CC(=O)O[C@H](C)C/C=C/C=C/[C@H](O[C@H]2CC[C@H](N(C)C)[C@@H](C)O2)[C@H](C)C[C@H](CC=O)[C@H](O[C@@H]2O[C@H](C)[C@@H](O[C@H]3C[C@@](C)(O)[C@@H](OC(=O)CC(C)C)[C@H](C)O3)[C@H](N(C)C)[C@H]2O)[C@H]1OC
3. O=P1(N(CCCl)CCCl)NCCCO1 (stereo not shown) [Cyclophosphamide, cyclophosphamide, reference compound]

Resp:
0.32
0.33
0.21

###

Please go through the items and note down their Thymus Index (%).
- testName: Thymus index and spleen index of Lewis lung cancer tumor-bearing mice
- statedConditions: dose 26 mg/kg; n = 6
- Experimental: In the Lewis lung cancer model, the mice inoculated with the tumor were randomly divided into groups with 10 mice in each group the next day of inoculation. The groups included: a model control group, a positive drug cyclophosphamide control group (CTX, 30 mg/kg), isovaleryl spiramycin I groups with doses of 13, 26 and 52 mg/kg; isovaleryl spiramycin II groups with doses of 13, 26 and 52 mg/kg; isovaleryl spiramycin III groups with doses of 13, 26 and 52 mg/kg. […]
Answers are plain numbers, in %.

Worked examples, 3 molecules total:
molecule | displayUnit | Thymus Index (%)
CO[C@@H]1[C@@H](O[C@@H]2O[C@H](C)[C@@H](O[C@H]3C[C@@](C)(O)[C@@H](OC(=O)CC(C)C)[C@H](C)O3)[C@H](N(C)C)[C@H]2O)[C@@H](CC=O)C[C@@H](C)[C@@H](O[C@H]2CC[C@H](N(C)C)[C@@H](C)O2)/C=C/C=C/C[C@@H](C)OC(=O)C[C@H]1O | % | 0.13
COC1C(OC(C)=O)CC(=O)OC(C)CC=CC=CC(OC2CCC(N(C)C)C(C)O2)C(C)CC(CC=O)C1OC1OC(C)C(OC2CC(C)(O)C(OC(=O)CC(C)C)C(C)O2)C(N(C)C)C1O (stereo not shown) | % | 0.14
CCC(=O)O[C@@H]1CC(=O)O[C@H](C)C/C=C/C=C/[C@H](O[C@H]2CC[C@H](N(C)C)[C@@H](C)O2)[C@H](C)C[C@H](CC=O)[C@H](O[C@@H]2O[C@H](C)[C@@H](O[C@H]3C[C@@](C)(O)[C@@H](OC(=O)CC(C)C)[C@H](C)O3)[C@H](N(C)C)[C@H]2O)[C@H]1OC | % | 0.11

Req: Thymus Index (%) lookup needed for O=P1(N(CCCl)CCCl)NCCCO1 (stereo not shown) [Cyclophosphamide, cyclophosphamide, reference compound] , thanks.
Resp: 0.06
